test system: Echinochloa crus-galli (ECHCG); test: B. Herbicidal post-emergence efficacy, ECHCG; format: in vivo; conditions: 1280 g/ha, rated visually after about 3 weeks
endpointLabel: Post-emergence efficacy against ECHCG in % (%)
One number for each entry, in %.

Record excerpt, results attached:
molecule	targetOrSystem	unitAbbreviation	valueMeasured
Cc1cccc(Oc2ncc(Cl)cn2)c1OS(=O)(=O)CCCC(F)(F)C(F)(F)F [Example I-69]	Echinochloa crus-galli (ECHCG)	%	100
COCCS(=O)(=O)Oc1c(F)cccc1Oc1ncc(Cl)cn1 [Example I-52]	Echinochloa crus-galli (ECHCG)	%	90

Parameters: items (list). Returns: Post-emergence efficacy against ECHCG in % for each item.
1. Cc1cccc(Oc2ncc(F)cn2)c1OS(=O)(=O)CCC(F)(F)F [Example I-45]
2. O=S(=O)(CCl)Oc1ccccc1Oc1ncc(Cl)cn1 [Example I-9]
3. CC(C)CCS(=O)(=O)Oc1ccccc1Oc1ncc(Cl)cn1 [Example I-25]

[100, 90, 100]

Report Post-emergence efficacy against ECHCG in % for each item below.
1. O=S(=O)(CCC(F)(F)F)Oc1c(Cl)cccc1Oc1ncc(Br)cn1 [Example I-32]
2. O=S(=O)(CCC(F)(F)F)Oc1ccccc1Oc1ncc(Cl)cn1 [Example I-8]
3. C=CCCS(=O)(=O)Oc1c(F)cccc1Oc1ncc(Cl)cn1 [Example I-50]
4. O=S(=O)(CCC(F)(F)F)Oc1c(Br)cccc1Oc1ncc(Cl)cn1 [Example I-31]
5. N#Cc1cccc(Oc2ncc(Cl)cn2)c1OS(=O)(=O)CC1CC(F)(F)C1 [Example I-79]

100
100
90
100
100
